B1: SMG5 (parent)
chain: QEKLQVLMAEGLLPAVKVFLDWLR

Variants of: B1
Test: protein stability index of a GFP-peptide fusion (GPS, HEK-293T) (PSI 1-6); higher = more stable;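 also: lentivirally expressed fusions sorted by FACS into six bins by GFP to DsRed ratio, PSI derived from sequencing read proportions per bin multiplied by bin number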
Details: c terminus: a fixed tail appended
PROPERTY: protein stability index
Note: the reply should be a number with no unit written.

Sample answers from the record:
1. QEKLQVLMAEGLLPAVKVFLGWLR | 2.04
2. QEKLQVLMAEGLLEAVKVFLDWLR | 1.96
3. QEKLQVLMAEGLLPAVKVFPDWLR | 1.76
4. QETLQVLMAEGLLPAVKVFLDWLR | 1.48
5. QEKLQVLMAEGLLPQVKVFLDWLR | 2.21

Now for the variant whose protein stability index we want.
[Q] Quick one: give measured protein stability index for QEKLQVLMAEWLLPAVKVFLDWLR
[A] 2.23

Where do the numbers come from? From the supplement of paper PMC10567573.
